B1: HDV Ribozyme (parent)
chain: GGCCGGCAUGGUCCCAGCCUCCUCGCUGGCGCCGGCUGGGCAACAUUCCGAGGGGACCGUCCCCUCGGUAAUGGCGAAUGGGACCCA

Variants of: B1
test-description: self-cleavage, relative activity (ratio to wild type); higher = more cleavage; co-transcriptional
Parameter class (string): assigned from measured self-cleavage. Ranges: band 1 (below 0.1), band 2 (0.1 to below 0.7), band 3 (0.7 or more)

Sample answers from the record:
| mutant | answer-label |
| --- | --- |
| C18G U20C | band 1 |
| G52U C57G | band 3 |

// bin(item) where item = G59A C61G
band 3

Also need U47A C58G , thanks.
band 3

Also need C61G G82A , thanks.
band 2
